For each record, write down the corresponding inhibition at 100 µM.
# assaySystem: Human factor Xa (Homo sapiens, UniProt P00742)
# Sequence (P00742 41-179 limits assumed): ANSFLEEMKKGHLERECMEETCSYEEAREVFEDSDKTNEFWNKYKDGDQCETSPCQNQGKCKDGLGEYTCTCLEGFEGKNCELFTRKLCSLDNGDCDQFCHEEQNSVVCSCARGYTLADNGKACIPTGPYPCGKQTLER
# Sequence (P00742 235-488 limits assumed): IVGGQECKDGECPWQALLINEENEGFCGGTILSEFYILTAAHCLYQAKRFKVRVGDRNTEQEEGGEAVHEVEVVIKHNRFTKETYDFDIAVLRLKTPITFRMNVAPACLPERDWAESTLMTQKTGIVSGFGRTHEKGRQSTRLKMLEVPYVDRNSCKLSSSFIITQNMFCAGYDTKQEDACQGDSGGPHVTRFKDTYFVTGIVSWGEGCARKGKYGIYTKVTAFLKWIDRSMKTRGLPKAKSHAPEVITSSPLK
# assayRemarks: Xa Assay
# Assay type: biochemical
# Set-up: purchased Enzyme Research Laboratories, South Bend Ind
# testConditions: at 100 μM inhibitor
// return the numeric value with its unit appended

# inhibition at 100 µM of N=C(N)c1ccc(Cc2cccc(-n3c(-c4cccc(N)c4)c(Cl)nc(NC4CCC4)c3=O)c2)cc1 = 28%

COc1ccc(CCNC(=O)c2cc(N)cc(-c3c(Cl)nc(NC(C)C)c(=O)n3CC(=O)NCc3ccc(C(=N)N)cc3)c2)cc1 has a reported inhibition at 100 µM of 39%

inhibition at 100 µM for CC(C)Nc1nc(Cl)c(-c2cc(N)cc(C(=O)NCc3ccccc3)c2)n(CC(=O)NCc2ccc(C(=N)N)cc2)c1=O is 36%

inhibition at 100 µM reported for this compound N=C(N)c1ccc(C(O)CCCn2c(-c3cccc(N)c3)c(Cl)nc(NC3CCC3)c2=O)cc1 (stereo not drawn) : 30%

Quick note, inhibition at 100 µM for N=C(N)c1ccc(C(=O)NCCn2c(-c3cccc(N)c3)c(Cl)nc(NC3CCC3)c2=O)cc1 landed at 15%

So, CC(C)Nc1nc(Cl)c(-c2cc(N)cc(C(N)=O)c2)n(CC(=O)NCc2ccc(C(=N)N)cc2)c1=O ? Its inhibition at 100 µM was 25%

###

# assaySystem: Human factor Xa (Homo sapiens)
# assayRemarks: Xa Assay
# Assay type: biochemical
# Design: purchased Enzyme Research Laboratories, South Bend Ind
# testConditions: at 30 µM inhibitor
Tag: T if measured % Inhibition Factor Xa (30 µM) is not below 10%, F if it is.

[ask] Hi, just wondering whether N=C(N)c1ccc(CNC(=O)Cn2c(-c3ccccc3)c(Cl)nc(NCCc3ccc(Cl)cc3)c2=O)cc1 shows % Inhibition Factor Xa (30 µM) of 10% or higher.
[reply] T

[ask] Test whether the compound COc1cccc(CNc2nc(Cl)c(-c3ccccc3)n(CC(=O)NCc3ccc(C(=N)N)cc3)c2=O)c1OC records % Inhibition Factor Xa (30 µM) of 10% or higher.
[reply] F

[ask] Is % Inhibition Factor Xa (30 µM) for CCOc1ccccc1CNc1nc(Cl)c(-c2ccccc2)n(CC(=O)NCc2ccc(C(=N)N)cc2)c1=O at or above 10%?
[reply] F

[ask] API: above_or_equal(metric=% Inhibition Factor Xa (30 µM), cutoff=10%) for item COc1ccc(-c2c(Cl)nc(NCc3ccncc3)c(=O)n2CC(=O)NCc2ccc(C(=N)N)cc2)cc1
[reply] T

[ask] hey, is % Inhibition Factor Xa (30 µM) for this one >= 10%? COC(=O)c1cccc(-c2c(Cl)nc(NC(C)C)c(=O)n2CC(=O)NCc2ccc(C(=N)N)cc2)c1
[reply] T

###

# assaySystem: recombinant soluble tissue factor and recombinant human factor VIIa (TF-VIIa) (Homo sapiens, UniProt P08709)
# Construct: conversion of coagulation factor VII to VIIa by Xa; purchased American Diagnostica, Greenwich Conn; host or cells: VIIa purchased; soluble TF made in house in E. coli
# Sequence (P08709 61-212 limits assumed): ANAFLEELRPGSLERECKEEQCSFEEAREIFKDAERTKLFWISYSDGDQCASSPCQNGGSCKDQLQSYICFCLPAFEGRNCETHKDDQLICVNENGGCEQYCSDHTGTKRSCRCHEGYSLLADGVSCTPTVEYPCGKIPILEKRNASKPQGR
# Sequence (P08709 213-466 limits assumed): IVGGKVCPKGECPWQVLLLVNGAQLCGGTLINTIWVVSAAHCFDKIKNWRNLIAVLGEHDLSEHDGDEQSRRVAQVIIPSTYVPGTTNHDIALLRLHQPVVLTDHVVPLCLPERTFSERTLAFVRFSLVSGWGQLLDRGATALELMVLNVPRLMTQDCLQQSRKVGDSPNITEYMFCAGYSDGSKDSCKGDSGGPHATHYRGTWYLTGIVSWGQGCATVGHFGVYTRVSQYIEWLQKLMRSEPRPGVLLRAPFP
# Sequence (P13726 33-251 partner limits assumed): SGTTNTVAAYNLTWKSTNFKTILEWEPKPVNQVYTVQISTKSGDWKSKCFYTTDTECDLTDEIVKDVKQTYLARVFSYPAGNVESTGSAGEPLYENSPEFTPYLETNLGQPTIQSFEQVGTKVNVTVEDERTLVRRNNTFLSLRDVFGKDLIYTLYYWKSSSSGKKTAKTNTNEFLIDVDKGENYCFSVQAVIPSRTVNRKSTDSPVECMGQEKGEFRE
# assayRemarks: TF-VIIa Assay
# Format: biochemical
# testConditions: read-out: IC50 TF-VIIa
Give IC50 for every item shown.
Give your result in nM as a bare value.

The measured IC50 associated with CC(C)Nc1nc(Cl)c(-c2cc(N)cc(C(=O)NC3CCC3)c2)n(CC(=O)NCc2ccc(C(=N)N)cc2)c1=O reads 6.6

Form field IC50, entry N=C(N)c1ccc(CNC(=O)Cn2c(-c3cc(N)cc(N)c3)cnc(NC3CCC3)c2=O)cc1 : 10

COc1ccc(CCNC(=O)c2cc(N)cc(-c3c(Cl)nc(NC(C)C)c(=O)n3CC(=O)NCc3ccc(C(=N)N)cc3)c2)cc1 has a reported IC50 of 33

The reported IC50 of the compound CC(C)Nc1nc(Cl)c(-c2cc(N)cc(C(=O)NCc3ccccn3)c2)n(CC(=O)NCc2ccc(C(=N)N)cc2)c1=O was 26.1

Entry under test: CC(C)Nc1nc(Cl)c(-c2cc(N)cc(C(=O)NC3CCCC3)c2)n(CC(=O)NCc2ccc(C(=N)N)cc2)c1=O . Its IC50 was 7

Lab book: IC50 of CN(C)CCNC(=N)c1ccc(CNC(=O)Cn2c(-c3cccc(N)c3)c(Cl)nc(NC3CCC3)c2=O)cc1 noted as 63000

// CC(C)Nc1nc(Cl)c(-c2cc(N)cc(C(=O)NCc3ccc(Cl)cc3Cl)c2)n(CC(=O)NCc2ccc(C(=N)N)cc2)c1=O : IC50 value = 84.7
